system: SK-MEL-2 melanoma; experiment: NCI tumour cell line growth inhibition, 48 h; in the data active = GI50 below about 0.43 µM; inactive = the rest
Classes to choose from: 1 (active), 0 (inactive)

Asked: // param item: `CCOC(=O)c1ccc2c(c1)c1c(C)c3ccncc3c(C)c1n2C` ; yields the recorded call
Given back: 0

Asked: // param item: `CC1(C)CCC(S(=O)(=O)c2ccc3c(c2)/C(=N\O)c2cc(S(=O)(=O)N4CCN(c5ccc(F)cc5O)CC4)ccc2-3)CC1` ; yields the recorded call
Given back: 1

Asked: // param item: `COc1cc(C(=O)/C=C/c2c(-c3cccs3)nc3sc(C)cn23)cc(OC)c1OC` ; yields the recorded call
Given back: 0

Asked: // param item: `COc1cc2c(cc1O)N=C[C@@H]1C[C@@H](F)CN1C2=O` ; yields the recorded call
Given back: 0

Asked: // param item: `COc1ccc2c(CCC(c3ccccc3)c3ccccc3)c3[n+](cc2c1OC)CCc1cc2c(cc1-3)OCO2` ; yields the recorded call
Given back: 1

Asked: // param item: `O=C([O-])c1ccc2c(c1)-c1nc-2nc2[n-]c(nc3nc(nc4[n-]c(n1)c1ccc(C(=O)[O-])cc41)-c1ccc(C(=O)[O-])cc1-3)c1ccc(C(=O)[O-])cc21.[Gd+3].[K+]` ; yields the recorded call
Given back: 0

Asked: // param item: Nc1nc2c(c3cnccc13)C(c1cccc(Br)c1)Cc1cnccc1-2 (configuration not stated) ; yields the recorded call
Given back: 1

Asked: // param item: O=C(OC(CNc1c(C(=O)c2ccccc2)c(=O)n(Cc2ccccc2)c(=O)n1Cc1ccccc1)CN1CCOCC1)c1ccccc1 (configuration not stated) ; yields the recorded call
Given back: 0

Asked: // param item: `O=c1c(O)c(O)c1=O.[NH2-].[NH2-].[NH2-].[NH2-].[NH2-].[Ru+5]` ; yields the recorded call
Given back: 0

Asked: // param item: `N#CC(C#N)=C/C=C(\Sc1ccc(F)c(Cl)c1)c1ccc(Cl)cc1` ; yields the recorded call
Given back: 0

Asked: // param item: `CCCCCCCCCCCCCCCCCCOP(=O)([O-])OC1CC[N+](C)(C)CC1` ; yields the recorded call
Given back: 0

Asked: // param item: `O=c1c2cc(I)ccc2nc(-c2cccs2)n1-c1ccc(S(=O)(=O)Nc2nccs2)cc1` ; yields the recorded call
Given back: 0

###

tested on: ACHN renal; test: NCI tumour cell line growth inhibition, 48 h
Kindly state TGI for each of the entries shown.

Asked: Complete the entry with TGI for `O=S(=O)(O)c1ccc(N=Nc2ccc(N=Nc3c(O)ccc4cc(S(=O)(=O)O)ccc34)cc2)cc1`
Given back: > 100 µM

Asked: Complete the entry with TGI for CCOC(=O)C(=O)/C=C(\C)Nc1c(NC2OCC(OC(C)=O)C(OC(C)=O)C2OC(C)=O)nc(SC)[nH]c1=O (centres undefined)
Given back: > 100 µM

Asked: Complete the entry with TGI for `Cc1cc(C)c(CNC(=O)c2cc(-c3ccc(CN4CCOCC4)cc3)cc3c2cnn3C2CCCC2)c(=O)[nH]1`
Given back: 34.6 µM

Asked: Complete the entry with TGI for `Cc1ccccc1N=Nc1cc(C)c(N=Nc2c(O)ccc3ccccc23)cc1C`
Given back: > 100 µM

###

system: NCI-H23 lung; experiment: NCI tumour cell line growth inhibition, 48 h; in the data active = GI50 below about 0.43 µM; inactive = the rest
Classes to choose from: 1.0 = active, 0.0 = inactive

Asked: // param item: `CCN(CC)c1ccc(N=O)cc1` ; yields the recorded call
Given back: 0.0

Asked: // param item: `CC(C)=CC(=O)OCC(=O)O[C@@H]1C[C@]2(C(C)C)O[C@@]1(C)[C@@H]1CC[C@@H](C)[C@H]1[C@@H]2OC(=O)/C=C/c1ccccc1` ; yields the recorded call
Given back: 0.0

Asked: // param item: `Cc1cccc(NC(=O)c2sc3nc4c(cc3c2N)CCCC4)c1` ; yields the recorded call
Given back: 0.0

Asked: // param item: `c1cc(N2CCCC2)c2nc(-c3[nH]ncc3Nc3ncnc4[nH]ccc34)[nH]c2c1` ; yields the recorded call
Given back: 1.0

Asked: // param item: `COc1ccc(C2=C(c3cn(C)c4ccccc34)C(=O)NC2=O)cc1` ; yields the recorded call
Given back: 0.0

Asked: // param item: `CCOC(=O)c1cc(C(=O)c2ccc(Cl)cc2)n2ccc(-c3cc[n+](CC(=O)c4ccc(OC)cc4)cc3)cc12` ; yields the recorded call
Given back: 0.0

Asked: // param item: `Ic1ccc2[nH]cc(SSc3c[nH]c4ccc(I)cc34)c2c1` ; yields the recorded call
Given back: 0.0

Asked: // param item: `CN(C)c1ccc2nc3ccc(=N)cc-3sc2c1` ; yields the recorded call
Given back: 0.0

Asked: // param item: `CCOC(=O)c1ccc2c(c1)c1c(C)c3ccncc3c(C)c1n2C` ; yields the recorded call
Given back: 1.0

Asked: // param item: O=C1OCC2=C1C(c1cccc(F)c1)c1cc3c(cc1N2CCO)CCC3 (configuration not stated) ; yields the recorded call
Given back: 1.0

Asked: // param item: `CCCCCCCCCCCCCCCCCCOP(=O)([O-])OC1CC[N+](C)(C)CC1` ; yields the recorded call
Given back: 0.0

Asked: // param item: COc1cc(CC(C)C(C)Cc2ccc(O)c(OC)c2)ccc1O (configuration not stated) ; yields the recorded call
Given back: 0.0
